Target: Non-receptor tyrosine-protein kinase TNK1 (Homo sapiens) (UniProt Q13470);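 further: reported values are mean inhibition figures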
Sequence (Q13470 whole entry): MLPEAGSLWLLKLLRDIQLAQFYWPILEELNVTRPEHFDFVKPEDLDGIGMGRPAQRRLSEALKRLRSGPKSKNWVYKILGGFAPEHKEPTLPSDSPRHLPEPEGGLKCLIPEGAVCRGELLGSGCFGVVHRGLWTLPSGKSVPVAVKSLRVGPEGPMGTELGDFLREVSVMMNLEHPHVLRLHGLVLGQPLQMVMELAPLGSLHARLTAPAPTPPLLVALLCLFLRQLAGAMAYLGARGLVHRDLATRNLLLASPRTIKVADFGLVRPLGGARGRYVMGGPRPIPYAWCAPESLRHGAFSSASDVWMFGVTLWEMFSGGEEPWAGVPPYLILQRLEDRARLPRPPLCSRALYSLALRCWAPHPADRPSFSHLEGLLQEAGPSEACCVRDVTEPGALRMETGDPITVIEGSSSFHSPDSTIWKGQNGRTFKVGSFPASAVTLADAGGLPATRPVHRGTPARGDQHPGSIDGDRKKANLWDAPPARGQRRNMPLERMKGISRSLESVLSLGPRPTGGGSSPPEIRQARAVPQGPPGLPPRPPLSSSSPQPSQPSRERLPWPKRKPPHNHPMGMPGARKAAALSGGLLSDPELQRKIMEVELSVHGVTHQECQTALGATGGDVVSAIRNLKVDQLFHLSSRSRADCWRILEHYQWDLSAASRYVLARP
Conditions: at 0.1 µM
inhibition for assorted compounds
Dear colleague, please return just the value in %, with no unit written.

These solved cases illustrate the format of a correct answer.
>>> val("CCOc1ccc2c(-c3ccnc(Nc4cccc(C(F)(F)F)c4)n3)cnn2n1")
-0.72
>>> val("COC(=O)Nc1nc2ccc(Oc3ccc(NC(=O)Nc4cccc(Cl)c4)cc3)cc2[nH]1")
2.25
>>> val("CCN(CC)S(=O)(=O)c1ccc(OC)c(Nc2ncc(-c3ccccc3)o2)c1")
15.6
>>> val("CNC(=O)c1cncc(/C=C/c2ccccc2Cl)c1")
2.57

Now take the following compound into account.
# compound COC(=O)Nc1nc2ccc(S(=O)(=O)c3ccc(NC(=O)Nc4cc(C(F)(F)F)ccc4F)cc3)cc2[nH]1 ; its inhibition = -0.2

---

Target: Protein kinase C theta type (Homo sapiens);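 further: each value is a mean inhibition of PKC-theta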
Details: at 1 µM
Measured inhibition accompanies every entry in the list below.
Could you give me the number in %? Just the number is fine.

>>> val("CCn1c(-c2nonc2N)nc2cnc(Oc3cccc(NC(=O)c4ccc(N(C)C)cc4)c3)cc21")
32.3

Measured inhibition of O=C(O[C@H]1CN[C@H](C#Cc2cc3ncnc(Nc4ccc(Cc5ccccc5)cc4)c3s2)C1)N1CCOCC1 : 2.2

In plain terms, CCn1c(-c2nonc2N)nc2ccccc21 has a documented inhibition of 6.38

Note to self: inhibition recorded for Nc1nc(-c2cccc(Cl)c2)c(-c2ccc3ncccc3n2)s1 was 5.67

Input COc1ccc2[nH]c3c4[nH]c5ccc(OC)cc5c4c4c(c3c2c1)C(=O)NC4=O . Output inhibition: 20.9

// Nc1nc(-c2ccc(F)cc2)c(-c2ccc3ncccc3n2)s1 : inhibition value = 3.74

Value of inhibition reported for the compound Cc1cccc(Nc2ncc(-c3ccccc3)o2)c1 is 6.83

The reported value for c1ccc(COc2ccc(Nc3ncnc4ccc(-c5ccco5)cc34)cc2)cc1 in terms of inhibition is -0.62

The measured inhibition associated with NC(=O)c1sc(-n2cnc3ccc(C(F)(F)F)cc32)cc1OCc1ccccc1Br reads 2.57

inhibition reading for Fc1cccc(COc2ccc(Nc3ncnc4sc(-c5ccco5)cc34)cc2Cl)c1 : 2.39

Record COc1ccc(-c2cc3c(N)ncnc3o2)cc1 . Reported inhibition: -1.64

According to the records, this compound COc1ccc(CNC(=O)c2ccc(-c3cc(-c4nnc(C)o4)ccc3C)cc2)cc1 displays inhibition of 5.52

Lab note: measured inhibition of COc1cc(Nc2nccc(Nc3ccc4c(C)n[nH]c4c3)n2)cc(OC)c1OC was -0.29

Summary for this compound, Fc1ccc(-c2nn3ccccc3c2-c2ccncc2)cc1 : inhibition is 2.07

Reported inhibition for CCOc1ccc2c(-c3ccnc(Nc4cccc(C(F)(F)F)c4)n3)cnn2n1 was 0.7

Memo: Clc1ccc(-c2nn3ncccc3c2-c2ccnc(Nc3ccccc3)n2)cc1 , reported inhibition: -0.72

---

Biological target: Serine/threonine-protein kinase pim-3 (Homo sapiens)
Conditions: at 1 µM
Description: GSK_PKIS: PIM3 mean inhibition at 1 uM [Nanosyn]
assayMetric: inhibition (%)
Expressed in %, but write only the number.

>>> val("CC1=C(C(=O)Nc2cc(Cl)c3[nH]ncc3c2)C(c2ccc(C(F)(F)F)cc2)CC(=O)N1 (stereo not given)")
-0.25

The reported Serine/threonine-protein kinase pim-3 (Homo sapiens) inhibition of CCn1c(-c2nonc2N)nc2cnc(Oc3cccc(NC(=O)c4ccc(N(C)C)cc4)c3)cc21 is 1.67

For the compound CCNC(=O)O[C@H]1CN[C@H](C#Cc2cc3ncnc(Nc4ccc(OCc5cccc(F)c5)c(Cl)c4)c3s2)C1 , the measured inhibition on Serine/threonine-protein kinase pim-3 (Homo sapiens) was -2.78

Noted inhibition for NS(=O)(=O)c1ccc(Nc2ncc(-c3ccccc3)o2)cc1 , tested on Serine/threonine-protein kinase pim-3 (Homo sapiens): 0.88

The measured inhibition that CCN1CCC(CC(=O)Nc2n[nH]c3nnc(-c4cccc(F)c4F)cc23)CC1 showed for Serine/threonine-protein kinase pim-3 (Homo sapiens) is 2.5

The values you see were collected from ChEMBL document CHEMBL1961873.
